Target: ENPP-1 ECD (Homo sapiens (Human))
Sequence (P22413 98-925): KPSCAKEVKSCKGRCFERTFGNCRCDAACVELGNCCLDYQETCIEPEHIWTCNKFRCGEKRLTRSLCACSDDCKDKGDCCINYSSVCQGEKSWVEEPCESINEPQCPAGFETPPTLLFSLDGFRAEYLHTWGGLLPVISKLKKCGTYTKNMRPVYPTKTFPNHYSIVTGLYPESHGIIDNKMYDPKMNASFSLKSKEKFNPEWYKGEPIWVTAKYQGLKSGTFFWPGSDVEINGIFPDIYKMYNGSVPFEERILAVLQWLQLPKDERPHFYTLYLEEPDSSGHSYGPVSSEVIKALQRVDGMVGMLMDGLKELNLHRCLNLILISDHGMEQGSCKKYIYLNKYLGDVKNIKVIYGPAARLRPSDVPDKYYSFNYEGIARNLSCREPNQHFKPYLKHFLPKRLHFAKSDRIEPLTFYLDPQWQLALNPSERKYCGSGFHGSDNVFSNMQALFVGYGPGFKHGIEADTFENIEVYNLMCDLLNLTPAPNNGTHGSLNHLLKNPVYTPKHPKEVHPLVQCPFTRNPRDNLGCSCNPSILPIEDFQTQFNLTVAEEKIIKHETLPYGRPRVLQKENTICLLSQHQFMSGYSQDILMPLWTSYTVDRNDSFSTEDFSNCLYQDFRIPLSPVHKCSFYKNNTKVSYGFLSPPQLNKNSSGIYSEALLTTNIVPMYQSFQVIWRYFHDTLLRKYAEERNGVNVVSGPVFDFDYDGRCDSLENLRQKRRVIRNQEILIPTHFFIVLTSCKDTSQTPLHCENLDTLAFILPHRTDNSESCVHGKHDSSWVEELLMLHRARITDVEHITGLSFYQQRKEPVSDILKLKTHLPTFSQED
Assay: Inhibition of ENPP1 hydrolysis of 2′,3′-cGAMP (Assay 1)
Details: read-out: Assay 1 KI; 2,3-cGAMP 24 μM, AMP-Glo luminescence, KI from IC50 via Cheng/Prusoff
Could you mark each record TRUE if its Ki falls strictly under 7 nM, and FALSE if it equals or exceeds it?

Inquiry: State whether 7 nM exceeds Ki recorded for COc1nc2ncnn2c(N(C)C)c1Cc1ccc([S@](C)(=N)=O)cc1 [Compound 88b] .
Reply text: FALSE

Inquiry: State whether 7 nM exceeds Ki recorded for Cc1nc2ncnn2c(N(C)C)c1Cc1ccc(S(=N)(=O)C2COC2)cc1 (stereo not shown) [Compound 62] .
Reply text: TRUE

Inquiry: State whether 7 nM exceeds Ki recorded for Cc1nc2ncnn2c(N2CCCC2)c1Cc1ccc(C(=O)NO)cc1 [Compound 82] .
Reply text: TRUE

Inquiry: State whether 7 nM exceeds Ki recorded for Cc1c(Cc2ccc([S@@](C)(=N)=O)cc2)c(N(C)C)n2ccnc2c1C#N [Compound 80a] .
Reply text: TRUE

Inquiry: State whether 7 nM exceeds Ki recorded for Cc1c(Cc2ccc(S(C)(=N)=O)cc2)c(N(C)C)n2ncnc2c1C#N (stereo not shown) [Compound 85] .
Reply text: TRUE

Inquiry: State whether 7 nM exceeds Ki recorded for Cc1nc2ncnn2c(N2CCCCC2)c1Cc1ccc([S@](C)(=N)=O)cc1 [Compound 16a] .
Reply text: TRUE

Inquiry: State whether 7 nM exceeds Ki recorded for [2H]C([2H])([2H])N(c1c(Cc2ccc(S(C)(=N)=O)cc2)c(C)nc2ncnn12)C([2H])([2H])[2H] (stereo not shown) [Compound 49] .
Reply text: TRUE

Inquiry: State whether 7 nM exceeds Ki recorded for Cc1nc2ncnn2c(N(C)C)c1Cc1ccc(S(C)(=N)=O)cc1 (stereo not shown) [Compound 1] .
Reply text: TRUE

Inquiry: State whether 7 nM exceeds Ki recorded for Cc1nc2ncnn2c(N(C)C)c1-c1ccc2c(c1)CN(S(N)(=O)=O)CC2 [Compound 69] .
Reply text: FALSE

Inquiry: State whether 7 nM exceeds Ki recorded for Cc1nc2ncnn2c(N(C)C)c1CC1CCN(S(N)(=O)=O)CC1 [Compound 15] .
Reply text: FALSE

Inquiry: State whether 7 nM exceeds Ki recorded for Cc1nc2ncnn2c(N2CCCCC2)c1Cc1ccc(S(C)(=N)=O)cc1 (stereo not shown) [Compound 16] .
Reply text: TRUE

Inquiry: State whether 7 nM exceeds Ki recorded for CN(C)c1c(Cc2ccc([S@](C)(=N)=O)cc2)c(Cl)nc2ncnn12 [Compound 74b] .
Reply text: FALSE

Inquiry: State whether 7 nM exceeds Ki recorded for Cc1nc2ncnn2c(N2CC3CC3C2)c1Cc1ccc(S(C)(=N)=O)cc1 (stereo not shown) [Compound 48] .
Reply text: TRUE

Inquiry: State whether 7 nM exceeds Ki recorded for Cc1nc2nccn2c(N(C)C)c1Cc1ccc([S@@](C)(=N)=O)cc1 [Compound 29b] .
Reply text: FALSE

Inquiry: State whether 7 nM exceeds Ki recorded for Cc1cc2ncnn2c(N(C)C)c1Cc1ccc([S@@](C)(=N)=O)cc1 (single isomer, unassigned) [Compound 28b] .
Reply text: FALSE

Inquiry: State whether 7 nM exceeds Ki recorded for CS(=N)(=O)c1ccc(Cc2c(C(F)(F)F)nc3ncnn3c2N2CCCCC2)cc1 (stereo not shown) [Compound 52] .
Reply text: TRUE

Inquiry: State whether 7 nM exceeds Ki recorded for Cc1cc2ncnn2c(N(C)C)c1Cc1ccc(S(C)(=N)=O)cc1 (stereo not shown) [Compound 28] .
Reply text: TRUE

Inquiry: State whether 7 nM exceeds Ki recorded for Cc1nc2ncnn2c(N(C)C)c1Cc1ccc([S@@](=N)(=O)CCC(=O)O)cc1 [Compound 72a] .
Reply text: TRUE

Inquiry: State whether 7 nM exceeds Ki recorded for Cc1nc2ncnn2c(N2CCCCC2)c1Cc1ccc([S@@](C)(=N)=O)cc1 [Compound 16b] .
Reply text: TRUE

Inquiry: State whether 7 nM exceeds Ki recorded for Cc1nc2ncnn2cc1Cc1ccc(S(C)(=N)=O)cc1 (stereo not shown) [Compound 70] .
Reply text: FALSE

Inquiry: State whether 7 nM exceeds Ki recorded for Cc1nc2ncnn2c(N(C)C)c1Cc1ccc([S@](C)(=N)=O)cc1 (single isomer, unassigned) [Compound 1a] .
Reply text: FALSE
